Target: Serine/threonine-protein kinase PAK 3 (Homo sapiens);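 note: mean percent inhibition of PAK3, measured in a screen of the GSK published kinase inhibitor set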
Reported conditions: at 0.1 µM
Assay endpoint: inhibition (%)

[[record]]
molecule = "COc1ccc2cc(-c3c(-c4ccncc4)nc(-c4ccc([S+](C)[O-])cc4C)n3C)ccc2c1 (configuration not stated)"
target = "Serine/threonine-protein kinase PAK 3 (Homo sapiens)"
result = -0.99

[[record]]
molecule = "COc1cc(Nc2ncc(-c3ccccc3)o2)cc(OC)c1OC"
target = "Serine/threonine-protein kinase PAK 3 (Homo sapiens)"
result = -1.91

[[record]]
molecule = "CCC(=O)Nc1ccc(C)c(-c2ccc(C(=O)NCC3CC3)cc2)c1"
target = "Serine/threonine-protein kinase PAK 3 (Homo sapiens)"
result = 2.56

[[record]]
molecule = "Cc1ccc(NC(=O)c2ccoc2)cc1-c1ccc(C(=O)NCC2CC2)cc1"
target = "Serine/threonine-protein kinase PAK 3 (Homo sapiens)"
result = 2.22

[[record]]
molecule = "CS(=O)(=O)CCNCc1ccc(-c2ccc3ncnc(Nc4ccc(OCc5ccccc5)c(Br)c4)c3c2)o1"
target = "Serine/threonine-protein kinase PAK 3 (Homo sapiens)"
result = 5.05

[[record]]
molecule = "COC(=O)Nc1nc2ccc(Sc3ccc(NC(=O)Nc4cc(C(F)(F)F)ccc4F)cc3)cc2[nH]1"
target = "Serine/threonine-protein kinase PAK 3 (Homo sapiens)"
result = -0.08

[[record]]
molecule = "COc1cc(Nc2ncc3c(C)nc(-c4cccc(C(F)(F)F)c4)n3n2)cc(OC)c1OC"
target = "Serine/threonine-protein kinase PAK 3 (Homo sapiens)"
result = 3.31

